Provenance of the data: PubChem BioAssay (NCI)

tested on: NCI/ADR-RES ovarian; assay: NCI-60 one-dose screen, 48 h (100 = growth as untreated, 0 = no growth, -100 = all killed); details: 10 µM
The panel holds about 83,000 compounds, 20% with a hit somewhere; the sample as a whole holds those more often.
Each entry below lists one item and its recorded growth value.
Test readout: growth (%)

- Cc1ccc(/C=C(\C#N)n2nnc3c(F)cccc32)cc1: 12.9
- CC(=O)NS(=O)(=O)c1ccc(NC(=O)CSC2=NC(c3ccccc3)C(C(C)=O)=C(C)N2)cc1 (centres undefined): 99.6
- Cc1ccc(NC(=O)c2ccc(-n3c(=O)[nH]c4ccccc4c3=O)cc2)cc1: 80.2
- CC(=O)Nc1nc(-c2ccc(N3CCN(C)CC3)c(NS(=O)(=O)c3cccc4c(N(C)C)cccc34)c2)cs1: 94.8
- CN1CCN(c2ccc(Nc3nc(NCCCNC(=O)c4ccccc4)c4sccc4n3)cc2)CC1: 82.3
- N#Cc1ccc(-c2nn(-c3ccc(C(=O)O)cc3)cc2CNc2cc(Cl)cc(C(F)(F)F)c2)cc1: 1.78
- O=C(c1ccc(O)cc1)C1[C@H](c2ccccc2Br)[C@@H](c2ccccc2)NC12C(=O)Nc1ccc(Cl)cc12 (some centres undefined): 11.2
- Cc1ccc(-c2cc(C(=O)N=Nc3c(O)[nH]c4ccc(Br)cc34)c3ccccc3n2)cc1: 55
- COc1ccc(NC(=O)CSc2nnc(-c3ccc4nc(-c5ccc(Cl)cc5)[nH]c4c3)o2)cc1: 81.3
- CN1CCN(c2ccc(Nc3nc(NCCCNC(=O)c4ccc(Cl)cc4)c4sccc4n3)cc2)CC1: 91.6
- O=C1CCC(N2Cc3cc(NC(=O)COc4ccccc4)ccc3C2=O)C(=O)N1 (centres undefined): 37.8
- COc1cc2c3c(n(CCCNC(C)C)c(=O)c2cc1OC)-c1nc2c(cc1C3=O)OCO2: -72
- NS(=O)(=O)c1ccc(NC(=O)CSc2ccc(-c3ccc(Cl)cc3)nn2)c(Br)c1: 70
- O=C(Nc1ccncc1)c1ccc(-n2c(=O)[nH]c3ccccc3c2=O)cc1: 103
- COC[C@@H](CC(C)C)N=C1N/C(=C\c2ccc3ncsc3c2)C(=O)N1C: 0.43
- Cc1ccc(-c2nc(Nc3ccc(S(N)(=O)=O)cc3)c3ccccc3n2)cc1: 54.7
- CC1=N/C(=C\c2ccc(N(C)C)cc2)C(=O)N1CCc1ccc(S(N)(=O)=O)cc1: 96.6
- Nc1cccnc1/C=N/NC(=S)NCCNC(=O)c1ccc(-n2nc(-c3ccccc3O)nc2-c2ccccc2O)cc1: 67.4
- CC1=C(C(=O)OC(C)C)C(c2ccc(O)cc2)NC(=S)N1 (centres undefined): 97.5
